test_name: Binding affinity to central benzodiazepine receptor
experimental_readout: Ki (nM)

compound: O=C(O)CCC(=O)OC1N=C(c2ccccc2Cl)c2cc(Br)ccc2NC1=O (stereo unspecified)
unit_annotation: nM
quantitative_readout: 72
